Measured values drawn from PubChem BioAssay (NCI) for this set.

# System: OVCAR-3 ovarian
# measurement protocol: NCI-60 one-dose screen, 48 h (100 = growth as untreated, 0 = no growth, -100 = all killed)
# test context: 10 µM unless noted
Compounds without any hit were thinned out: in the full panel of roughly 83,000, 20% have a hit. The source made the active and inactive calls. The calls were made as follows: active = growth percent below 10; inactive = the rest.
measure: growth

# compound, result
records = [
    ("Clc1ccc2c(NCCCCNc3nc(N4CCCCC4)nc4ccccc34)ccnc2c1", "-27.3% (active)"),
    ("O=C(N/N=C/c1c[nH]c2ccccc12)c1cc(-c2ccccc2)on1", "103% (inactive)"),
]

What value of growth has been recorded for this entry: `CCCCCCN(CCCCCC)C(=N)c1ccnc2ccccc12`
69.3% (inactive)

What value of growth has been recorded for this entry: `COC(=O)c1ccc(Cn2cnc3c(N)ncnc32)cc1`
118% (inactive)

What value of growth has been recorded for this entry: `CSc1nc(NCc2ccccc2)c(C#N)c(-c2cccc([N+](=O)[O-])c2)n1`
111% (inactive)

What value of growth has been recorded for this entry: `C#CCOc1ccc2ncnc(N3CCC(NC(=O)CCl)CC3)c2c1`
68.2% [8.25 µM] (inactive)

What value of growth has been recorded for this entry: CC(C)(C)N1CCC1CN (centres undefined)
103% (inactive)

What value of growth has been recorded for this entry: `C=CC(=O)Nc1cccc(-c2nc(SC)nc(NCc3ccccc3)c2C#N)c1`
48.4% (inactive)

What value of growth has been recorded for this entry: `CC(C)C1=C[C@@]23CC[C@@H]4[C@](C)(CCC[C@@]4(C)C(=O)N4CCCNCC4)[C@H]2C[C@@H]1[C@H]1C(=O)CCC(=O)[C@H]13`
115% (inactive)

What value of growth has been recorded for this entry: `COc1cccc(-c2nn(C(C)(C)C)cc2-c2ccnc(NCCCNS(=O)(=O)c3cccc4ccccc34)c2)c1`
108% (inactive)
